Source: patent US6900200B2

Target: human vasopressin V2 receptor subtype (Homo sapiens)
Construct: host or cells: CHO cells, pZeoSV vector
Sequence (P30518 whole entry): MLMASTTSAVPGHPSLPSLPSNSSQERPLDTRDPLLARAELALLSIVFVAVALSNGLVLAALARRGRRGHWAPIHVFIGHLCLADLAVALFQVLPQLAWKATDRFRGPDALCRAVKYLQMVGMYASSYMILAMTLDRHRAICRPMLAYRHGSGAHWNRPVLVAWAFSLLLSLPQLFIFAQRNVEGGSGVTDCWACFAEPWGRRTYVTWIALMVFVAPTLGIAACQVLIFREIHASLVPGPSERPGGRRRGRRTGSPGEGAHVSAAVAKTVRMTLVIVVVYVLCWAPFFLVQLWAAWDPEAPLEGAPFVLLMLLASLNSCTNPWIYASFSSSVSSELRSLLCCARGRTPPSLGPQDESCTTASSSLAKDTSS
Assay: Vasopressin binding in CHO cell membranes expressing human vasopressin V2 subtype receptors ([3H]arginine vasopressin radioligand binding)
Conditions: @ 100 nM
Mark satisfied for reported inhibition at 0.1 µM of 20% or greater; mark not satisfied for anything smaller.

- molecule: "COc1ccccc1-c1ccc(C(=O)N2Cc3ccc(C(=O)N(C)C[C@H](O)CO)n3Cc3ccccc32)cc1C (single isomer, unassigned)"
  class: "satisfied"
- molecule: "COc1ccccc1-c1ccc(C(=O)N2Cc3ccc(C(=O)N4CCN(CCO)CC4)n3Cc3ccccc32)cc1"
  class: "not satisfied"
- molecule: "Cc1cc(C(=O)N2Cc3ccc(C(=O)NC(CO)(CO)CO)n3Cc3ccccc32)ccc1-c1ccccc1C(F)(F)F"
  class: "not satisfied"
- molecule: "COc1ccccc1-c1ccc(C(=O)N2Cc3ccc(C(=O)N4CCN(CCO)CC4)n3Cc3ccccc32)cc1C"
  class: "satisfied"
- molecule: "O=C(c1ccc2n1Cc1ccccc1N(C(=O)c1ccc(-c3cccc4ccccc34)cc1Cl)C2)N1CCN(CCO)CC1"
  class: "satisfied"
- molecule: "COc1cccc(-c2ccc(C(=O)N3Cc4ccc(C(=O)N5CCN(CCO)CC5)n4Cc4ccccc43)cc2OC)c1"
  class: "not satisfied"
